- targetUnderTest: T1, H1N1 HA (A/California/04/2009) (Influenza A virus A/California/04/2009 …, UniProt C3W5S1, strain)
- T1 construct: source: bought: Sino Biological
- assayName: SPR
- assayContext: both partners purified
assayReadout: pKd
# pKd: negative log10 of molar concentration; output just the value

Reference set (2 entries):
H1-Ab32 (antibody, V domains shown, IgG1; source: HEK293T, transfected with heavy and light chain plasmids; purified mAbs) VH: EVQLVESGGGLVQPGGSLRLSCAASSFTFSNYAMSWVRQAPGKGLEWVSLINSGGGDKYYADSVKGRFIVSRDNSKNALYLQMNSLRAEDTAVYFCARVVGRETFGLVIPIYYFDYWGQGDLVTVSS VL: EIVLTQSPATLSLSPGERATLSCRASQSVSSFLAWYQQKPGQAPRLLIYDASNRATGVPARFSGSGSGTDFTLTISSLEPEDFAVYYCQQCSNWPPLTFGGGTKVEIK
9.25
H1-Ab56 (antibody, V domains shown, IgG1; source: HEK293T, transfected with heavy and light chain plasmids; purified mAbs) VH: EVQLVQSGPGLVKPSETLSLTCTVSGGSISSDYWSWIRQPPGKGLEWIGYIHQNGRTNSNPSLRGRVSMLVDTSESQFSLKLGSVTAADTAVYYCARDQAGIRRSNAFDIWGQGTLVTVSS VL: DIVMTQSPSSLSASVGDRVTITCRASQSISTYLNWYQQKPGKAPKLLIYAASTLQSGVPSRFSGSASGSEFTLTISSLQPEDFASYYCQQSYDIPQTFGPGTKVEIK
9.43

pKd lookup needed for H1-Ab30 (antibody, V domains shown, IgG1; source: HEK293T, transfected with heavy and light chain plasmids; purified mAbs) VH: EVQLVQSGGGLVQPGGSLRLSCAASGFTFSSYAMSWVRQAPGKGLEWVSTISGSGISTYYADSVKGRFTISRDNSKNTLYLQMNSLRADDTAVYYCAKALATHIVMAGTLDFWGQGTLVTVSS VL: EIVMTQSPATLSVSPEERATLSCRASQSVTNSLAWYQQKPGQAPRLLIYGASTRATGIPARFSGSGSGTEFTLTISSLQSEDFAVYYCQQYNNWPPLTFGGGTKVEIK , thanks.
10.18

If you can, please state the reported pKd value of H1-Ab43 (antibody, V domains shown, IgG1; source: HEK293T, transfected with heavy and light chain plasmids; purified mAbs) VH: EVQLVESGGNLVQPGGSLTLSCAVSGFAFSNFEANWVRQAPGKGLEWVSYISKSGLTKYYSDSVKGRFTISRDNAKSSLYLQMNSLRAEDTAVYYCVSPIPVAGTMEIYWGQGTLVTVSS VL: DIQMTQSPATLSVFPGERATLSCRASQSIRSDLAWYQQKPGQPPRLLIYGASTRATGIPARFSGSGSETEFTLTISSLQSEDFAVYYCQQYNNWPPLTFGGGTKVEIK .
9.81

# pKd lookup, item H1-Ab55 (antibody, V domains shown, IgG1; source: HEK293T, transfected with heavy and light chain plasmids; purified mAbs) VH: EVQLVESGPGLVKPSETLSLTCTVSGGSISSDYWSWIRQAPGKGLEWLAYIHHNGRTNYNPSLGSRVAISIDTSRSQFSLKLGSVTAADTAVYYCARDQTGIRKSNAFDLWGQGTLVTVSS VL: DIQLTQSPSSLSASVGDRVTITCRASQNIRSYLNWYQQKPGKAPKLLIYGVSTLQNGVPSRFSGSASGSDFTLTISSLQPEDFATYHCQQSYDTPQTFGPGTKVEIK
9.33

Look up pKd: H1-Ab59 (antibody, V domains shown, IgG1; source: HEK293T, transfected with heavy and light chain plasmids; purified mAbs) VH: EVQLVESGPGLVKPSQTLSLTCTVSGGSVSSGGYSWTWIRQPAGKGLEWIGRIYFTGSTNYNPSLKSRITISVDTSKNQFSLRLSSVTAADTAVYYCAREDDFVWGSYRRFAYFDYWGQGTLVTVSS VL: EIVMTQSPSSLSASVGDRVNITCQASQDISNYLNWYQQKPGEAPKLLIYGASSLQTGVPSRFSGSGSGTNFIFTISSLQPEDLATYYCQQYDNLPMYTFGQGTKVEIK
7.85

So what does the record say about pKd for H1-Ab19 (antibody, V domains shown, IgG1; source: HEK293T, transfected with heavy and light chain plasmids; purified mAbs) VH: EVQLVESGGGLVKPGGSLRLSCAASGFTFSSYSMHWVRQAPGKGLEWVSSISSIGTYIYYADSVKGRFTISRDNAKNSLYLQLNSLRVEDTAVFYCATGVTSSYGGYSGYFDSWGQGTLVTVSS VL: DIVMTQSPSSLSASVGDRVTITCQASQDISKHLNWYQQKPGKAPKLLIYDASNLETGVPSRFSGSGSGTDFSFTISSLQPEDIATYYCQQYDNPFLTFGGGTKVEIK ?
12.00

Entry under review: H1-Ab41 (antibody, V domains shown, IgG1; source: HEK293T, transfected with heavy and light chain plasmids; purified mAbs) VH: QVQLQESGGGVVQPERSLRLSCAASGFKFSSYAMHWVRQAPGKGLEWVAVFWSDGTTKYYANSVRGRFTVSRDNSKNMLYLQINSLRAEDTAVYYCARGFLLPYYGSSGYEYFFDFWGQGTTVTVSS VL: AIGMTQSPESLAVSLGERATINCKSGQSILHSSNNKNYLAWYQQKPGQPPKLVIYWASTRESGVPDRFSGSGSETDFTLTISSLQAEDVAVYYCQQYYSTPSFGGGTKVEIK . Reported pKd?
10.09
